As shown below, each of these molecules has a reported selectivity ratio value.
- test: Selectivity index, ratio of IC50 for mouse RAW264.7 cells to IC50 for antitrypanosomal activity against bloodstream Trypanosoma brucei Lister 427
- Format: toxicity
- condition_parameters: read-out: Ratio IC50
Give a plain numeric answer without units written out.

Solved cases below.
So for COc1cc(NC(=O)c2cccc(Br)c2)ccc1S(N)(=O)=O , the logged selectivity ratio turned out to be 1.57

So for COc1cc(NC(=O)c2cccc(C(F)(F)F)c2)ccc1S(N)(=O)=O , the logged selectivity ratio turned out to be 2.13

So for COc1cc(NC(=O)c2cc(C(F)(F)F)cc(C(F)(F)F)c2)ccc1S(N)(=O)=O , the logged selectivity ratio turned out to be 1.94

Next up:
So for COc1cc(NC(=O)c2ccc(Br)cc2)ccc1S(N)(=O)=O , the logged selectivity ratio turned out to be 12.1
